assay: Pharmacokinetics after 21 days dosing in the efficacy study (plasma, tumor and brain concentrations; plasma AUC at steady state), Example 14; assay type: in vivo, female BALB/c nude mice; details: mouse, plasma, po; 2 mg/kg p.o. TID x 21 days; 2 h; mean ± SEM
Measured metric: concentration at 2 h (ng/mL)
Answer with a number only, understood to be in ng/mL.

Q. Answer with the recorded concentration at 2 h for the molecule listed here: CCN(C)S(=O)(=O)Nc1ccc(F)c(Oc2ccc3ncn([C@H]4COC5(CCN(C6CC7(C6)CN(c6cc8c(cc6F)c(N6CCC(=O)NC6=O)nn8C)C7)CC5)C4)c(=O)c3c2)c1C#N
A. 5110

----------
experiment: Example 7 pharmacokinetics assay for efficacy study (plasma, liver); type: in vivo, BALB/c nude mice; settings: mouse, liver, po, 10 mg/kg, p.o., BID × 14 days, read-out: Concentration in Liver (mean ± SEM)
Measured metric: concentration at 6 h (ng/g)

Molecule	concentration at 6 h, ng/g
CCN(C)S(=O)(=O)Nc1ccc(F)c(Oc2ccc3ncn(C4CC5(CCN(C6CCN(c7cc8c(cc7F)c(N7CCC(=O)NC7=O)nn8C)CC6)CC5)C4)c(=O)c3c2)c1C#N [Compound 156]	1840
CCN(C)S(=O)(=O)Nc1ccc(F)c(Oc2ccc3ncn(C4CC5(CCN(C6CC7(C6)CN(c6cc8c(cc6F)c(N6CCC(=O)NC6=O)nn8C)C7)CC5)C4)c(=O)c3c2)c1C#N (stereo not shown) [Compound 141]	6570

[P] CCN(C)S(=O)(=O)Nc1ccc(F)c(Oc2ccc3ncc(C4CC5(CCN(C6CCC(c7cc8c(cc7F)c(N7CCC(=O)NC7=O)nn8C)CC6)CC5)C4)nc3c2)c1C#N (single isomer, unassigned) [Compound 180]
[Q] CCN(C)S(=O)(=O)Nc1ccc(F)c(Oc2ccc3ncc(OCC4CCN(C5CCC(c6cc7c(cc6F)c(N6CCC(=O)NC6=O)nn7C)CC5)CC4)nc3c2)c1C#N (single isomer, unassigned) [Compound 118]
Q. // which entry has the larger concentration at 6 h value, P or Q ? Use the label to indicate which entry you chose.
A. Q

----------
assay: Example 7 pharmacokinetics assay for PKPD study (plasma, tumor, liver); type: in vivo, BALB/c nude mice; conditions: mouse, liver, po; 10 mg/kg, p.o., single dose; 12 h; read-out: Concentration in Liver (mean ± SEM)
Measured metric: concentration at 12 h (ng/g)

See these solved cases before continuing.
Compound	Units of measure	Assay result
CCN(C)S(=O)(=O)Nc1ccc(F)c(Oc2ccc3ncn(C4CC5(CCN(C6CC7(C6)CN(c6cc8c(cc6F)c(N6CCC(=O)NC6=O)nn8C)C7)CC5)C4)c(=O)c3c2)c1C#N (stereo not shown)	ng/g	3050
CCN(C)S(=O)(=O)Nc1ccc(F)c(Oc2ccc3ncc(C4CC5(CCN(C6CCC(c7cc8c(cc7F)c(N7CCC(=O)NC7=O)nn8C)CC6)CC5)C4)nc3c2)c1C#N (single isomer, unassigned)	ng/g	247

[P] CCN(C)S(=O)(=O)Nc1ccc(F)c(Oc2ccc3ncc(OCC4CCN(C5CCC(c6cc7c(cc6F)c(N6CCC(=O)NC6=O)nn7C)CC5)CC4)nc3c2)c1C#N (single isomer, unassigned)
[Q] CCN(C)S(=O)(=O)Nc1ccc(F)c(Oc2ccc3ncn(C4CC5(CCN(C6CCN(c7cc8c(cc7F)c(N7CCC(=O)NC7=O)nn8C)CC6)CC5)C4)c(=O)c3c2)c1C#N
Q. // which entry has the larger concentration at 12 h value, P or Q ? Use the label to indicate which entry you chose.
A. P

----------
assay: Pharmacokinetics in female BALB/c nude mice bearing A375 xenografts, 1 day dosing (PK and PD study): plasma, tumor and brain concentrations, AUC; type: in vivo; conditions: mouse, tumor, po, 1.5 mg/kg, Compound 141; 1.5 mg/kg p.o. BID × 1 day; post 2nd dose; 0.5 h; read-out: Mean Concentration in Tumor ± SEM
Measured metric: concentration at 0.5 h (ng/g)
Answer with a number only, understood to be in ng/g.

Q. Answer with the recorded concentration at 0.5 h for the molecule listed here: CCN(C)S(=O)(=O)Nc1ccc(F)c(Oc2ccc3ncn(C4CC5(CCN(C6CC7(C6)CN(c6cc8c(cc6F)c(N6CCC(=O)NC6=O)nn8C)C7)CC5)C4)c(=O)c3c2)c1C#N (stereo not shown) [Compound 141]
A. 61.5

----------
experiment: Pharmacokinetics in female BALB/c nude mice bearing A375 xenografts, 1 day dosing (PK and PD study): plasma, tumor and brain concentrations, AUC; assay type: in vivo; settings: mouse, plasma, po, 2 mg/kg, 2 mg/kg p.o. TID × 1 day; post 1st dose; 0.25 h; read-out: Mean Concentration in Plasma ± SEM
Measured metric: concentration at 0.25 h (ng/mL)
Answer with a number only, understood to be in ng/mL.

Q. Answer with the recorded concentration at 0.25 h for the compound listed here: CCN(C)S(=O)(=O)Nc1ccc(F)c(Oc2ccc3ncn([C@H]4COC5(CCN(C6CC7(C6)CN(c6cc8c(cc6F)c(N6CCC(=O)NC6=O)nn8C)C7)CC5)C4)c(=O)c3c2)c1C#N
A. 1600

----------
assay: Pharmacokinetics in female BALB/c nude mice bearing A375 xenografts, 1 day dosing (PK and PD study): plasma, tumor and brain concentrations, AUC; assay type: in vivo; conditions: mouse, plasma, po, 100 mg/kg, 100 mg/kg p.o. QD × 1 day; 0.25 h; read-out: Mean Concentration in Plasma ± SEM
Measured metric: concentration at 0.25 h (µg/mL)
Answer with a number only, understood to be in µg/mL.

Q. Answer with the recorded concentration at 0.25 h for the compound listed here: CC(C)(C)c1nc(-c2cccc(NS(=O)(=O)c3c(F)cccc3F)c2F)c(-c2ccnc(N)n2)s1 [Dabrafenib, dabrafenib, reference compound]
A. 62.2

----------
assay: Pharmacokinetics in female BALB/c nude mice bearing A375 xenografts, 1 day dosing (PK and PD study): plasma, tumor and brain concentrations, AUC; format: in vivo; conditions: mouse, plasma, po, 10 mg/kg, 10 mg/kg p.o. BID × 1 day; post 1st dose; 4 h; read-out: Mean Concentration in Plasma ± SEM
Measured metric: concentration at 4 h (ng/mL)
Answer with a number only, understood to be in ng/mL.

Q. Answer with the recorded concentration at 4 h for the compound listed here: CCN(C)S(=O)(=O)Nc1ccc(F)c(Oc2ccc3ncn([C@H]4COC5(CCN(C6CC7(C6)CN(c6cc8c(cc6F)c(N6CCC(=O)NC6=O)nn8C)C7)CC5)C4)c(=O)c3c2)c1C#N [Compound 26]
A. 7890

----------
test: Pharmacokinetics in female BALB/c nude mice bearing A375 xenografts, 1 day dosing (PK and PD study): plasma, tumor and brain concentrations, AUC; type: in vivo; conditions: mouse, plasma, po, 5 mg/kg, 5 mg/kg p.o. BID × 1 day; post 2nd dose; 48 h; read-out: Mean Concentration in Plasma ± SEM
Measured metric: concentration at 48 h (ng/mL)
Answer with a number only, understood to be in ng/mL.

Q. Answer with the recorded concentration at 48 h for the compound listed here: CCN(C)S(=O)(=O)Nc1ccc(F)c(Oc2ccc3ncn(C4CC5(CCN(C6CC7(C6)CN(c6cc8c(cc6F)c(N6CCC(=O)NC6=O)nn8C)C7)CC5)C4)c(=O)c3c2)c1C#N (stereo not shown)
A. 0.635

----------
biological target: BRAF V600E (Homo sapiens, UniProt P15056+Q96SW2, V600E); construct: knock-in of the HiBiT tag to the endogenous BRAF V600E locus; host or cells: A375.10 (A375 clonal line, CRISPR HiBiT knock-in at the endogenous BRAF V600E locus); test: BRAF V600E HiBiT Degradation Assay; assay type: cell-based; settings: read-out: HiBiT-Degradation A375.10 BRAF 2 hours Emax, A375.10 cells, BRAF V600E, 2 hours; residual protein remaining
Sequence (P15056 whole entry V600E): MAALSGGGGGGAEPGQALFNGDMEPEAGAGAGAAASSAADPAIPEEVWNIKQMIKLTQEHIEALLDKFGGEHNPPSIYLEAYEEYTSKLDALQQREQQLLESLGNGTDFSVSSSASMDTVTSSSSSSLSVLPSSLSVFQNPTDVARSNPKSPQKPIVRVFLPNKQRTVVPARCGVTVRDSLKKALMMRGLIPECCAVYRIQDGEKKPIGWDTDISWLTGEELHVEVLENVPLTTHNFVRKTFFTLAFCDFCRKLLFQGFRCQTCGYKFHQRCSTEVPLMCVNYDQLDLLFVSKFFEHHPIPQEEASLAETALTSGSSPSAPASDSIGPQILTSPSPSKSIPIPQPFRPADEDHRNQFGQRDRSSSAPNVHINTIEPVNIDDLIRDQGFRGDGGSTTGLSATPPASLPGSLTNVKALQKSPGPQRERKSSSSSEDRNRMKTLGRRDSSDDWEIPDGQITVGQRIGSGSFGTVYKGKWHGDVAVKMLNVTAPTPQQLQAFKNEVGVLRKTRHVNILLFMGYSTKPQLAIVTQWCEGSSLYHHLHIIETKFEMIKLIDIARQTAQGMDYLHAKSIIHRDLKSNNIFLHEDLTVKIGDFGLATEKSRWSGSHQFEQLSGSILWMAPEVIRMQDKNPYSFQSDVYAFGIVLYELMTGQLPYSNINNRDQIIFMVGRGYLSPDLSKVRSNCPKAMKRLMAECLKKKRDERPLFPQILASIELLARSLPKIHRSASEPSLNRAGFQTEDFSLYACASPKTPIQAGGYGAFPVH
Sequence (Q96SW2 whole entry): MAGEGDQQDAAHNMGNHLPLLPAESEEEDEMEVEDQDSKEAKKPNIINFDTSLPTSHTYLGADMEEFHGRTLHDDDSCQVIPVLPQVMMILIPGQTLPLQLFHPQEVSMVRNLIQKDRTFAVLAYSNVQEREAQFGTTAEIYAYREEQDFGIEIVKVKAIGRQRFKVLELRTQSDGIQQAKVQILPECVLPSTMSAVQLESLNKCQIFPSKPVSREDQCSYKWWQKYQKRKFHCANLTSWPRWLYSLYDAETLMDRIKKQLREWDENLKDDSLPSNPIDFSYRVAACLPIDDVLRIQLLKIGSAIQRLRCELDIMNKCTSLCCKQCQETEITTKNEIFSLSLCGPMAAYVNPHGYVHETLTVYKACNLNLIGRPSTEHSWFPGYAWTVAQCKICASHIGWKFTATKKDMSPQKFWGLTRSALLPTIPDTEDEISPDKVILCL
Sequence (Q16531 whole entry partner): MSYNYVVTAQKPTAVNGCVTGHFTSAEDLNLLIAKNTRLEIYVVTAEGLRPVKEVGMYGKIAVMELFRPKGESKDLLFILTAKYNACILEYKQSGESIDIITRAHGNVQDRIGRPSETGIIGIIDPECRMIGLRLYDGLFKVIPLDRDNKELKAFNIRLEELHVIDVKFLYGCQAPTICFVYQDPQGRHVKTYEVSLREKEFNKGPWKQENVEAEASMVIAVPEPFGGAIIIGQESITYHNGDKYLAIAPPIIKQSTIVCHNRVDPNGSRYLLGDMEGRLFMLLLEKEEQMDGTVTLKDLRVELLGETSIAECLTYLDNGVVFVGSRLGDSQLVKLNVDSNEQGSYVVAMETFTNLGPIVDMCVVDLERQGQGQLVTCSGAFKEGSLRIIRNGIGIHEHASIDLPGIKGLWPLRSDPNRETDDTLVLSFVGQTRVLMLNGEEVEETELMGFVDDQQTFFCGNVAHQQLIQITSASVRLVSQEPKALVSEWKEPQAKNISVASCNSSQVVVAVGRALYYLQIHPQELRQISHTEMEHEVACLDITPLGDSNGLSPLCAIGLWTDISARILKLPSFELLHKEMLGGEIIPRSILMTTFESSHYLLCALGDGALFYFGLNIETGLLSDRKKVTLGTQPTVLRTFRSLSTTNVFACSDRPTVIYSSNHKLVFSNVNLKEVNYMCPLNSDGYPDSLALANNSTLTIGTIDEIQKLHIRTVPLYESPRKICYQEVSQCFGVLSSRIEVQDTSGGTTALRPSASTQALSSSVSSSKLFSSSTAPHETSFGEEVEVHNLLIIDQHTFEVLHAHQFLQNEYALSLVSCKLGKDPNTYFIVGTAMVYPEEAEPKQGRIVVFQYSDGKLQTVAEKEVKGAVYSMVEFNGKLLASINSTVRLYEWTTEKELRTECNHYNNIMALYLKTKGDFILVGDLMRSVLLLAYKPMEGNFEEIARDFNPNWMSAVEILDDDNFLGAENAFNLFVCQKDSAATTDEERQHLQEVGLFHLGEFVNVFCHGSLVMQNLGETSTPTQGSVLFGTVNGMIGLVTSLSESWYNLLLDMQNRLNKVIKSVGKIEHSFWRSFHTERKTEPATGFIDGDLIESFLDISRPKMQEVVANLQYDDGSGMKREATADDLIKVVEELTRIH
Measured metric: Emax

See these solved cases before continuing.
Compound	Emax
CCN(C)S(=O)(=O)Nc1ccc(F)c(Oc2ccc3ncn([C@@H]4COC5(CCN(C6CCC(c7cc8c(cc7F)c(N7CCC(=O)NC7=O)nn8C)CC6)CC5)C4)c(=O)c3c2F)c1C#N (single isomer, unassigned) [Compound 46]	< 50%
CCN(C)S(=O)(=O)Nc1ccc(F)c(Oc2ccc3ncc(OC4CC5(CCN(C6CCC(c7cc8c(cc7F)c(N7CCC(=O)NC7=O)nn8C)CC6)CC5)C4)nc3c2)c1C#N (single isomer, unassigned) [Compound 218]	< 50%
CCN(C)S(=O)(=O)Nc1ccc(F)c(Oc2ccc3ncn(C4CC5(CCN(C6CC7(CCN(c8cc9c(cc8F)c(N8CCC(=O)NC8=O)nn9C)CC7)C6)CC5)C4)c(=O)c3c2)c1C#N (stereo not drawn) [Compound 198]	< 50%
CO[C@H]1CCN(S(=O)(=O)Nc2ccc(F)c(Oc3ccc4ncn(C5CC6(CCN(C7CC8(C7)CN(c7cc9c(cc7F)c(N7CCC(=O)NC7=O)nn9C)C8)CC6)C5)c(=O)c4c3)c2C#N)C1 (stereo partly drawn) [Compound 272]	< 50%
CN(CCO)S(=O)(=O)Nc1ccc(F)c(Oc2ccc3ncn(C4CC5(CCN(C6CCC(c7cc8c(cc7F)c(N7CCC(=O)NC7=O)nn8C)CC6F)CC5)C4)c(=O)c3c2)c1C#N (single isomer, unassigned) [Compound 145]	< 50%

Q. Give reported Emax for CCN(C)S(=O)(=O)Nc1ccc(F)c(Oc2ccc3ncnc(OC4CC5(C4)CN(C4CCC(c6cc7c(cc6F)c(N6CCC(=O)NC6=O)nn7C)CC4)C5)c3c2)c1C#N (single isomer, unassigned) [Compound 232] (BRAF V600E (Homo sapiens, UniProt P15056+Q96SW2, V600E))
A. 50 to 90%

Q. Give reported Emax for CCN(C)S(=O)(=O)Nc1ccc(F)c(Oc2ccc3ncn(C4CC5(CCN(C6CCC(c7cc8c(cc7F)c(N7CCC(=O)NC7=O)nn8C)CC6F)CC5)C4)c(=O)c3c2)c1C#N (single isomer, unassigned) [Compound 83] (BRAF V600E (Homo sapiens, UniProt P15056+Q96SW2, V600E))
A. < 50%

Q. Give reported Emax for CCN(C)S(=O)(=O)Nc1ccc(F)c(Oc2ccc3ncn([C@H]4COC5(CCC(N6CC7(CN(c8ccc(NC9CCC(=O)NC9=O)cc8F)C7)C6)CC5)C4)c(=O)c3c2)c1C#N (stereo partly drawn) [Compound 30] (BRAF V600E (Homo sapiens, UniProt P15056+Q96SW2, V600E))
A. < 50%

Q. Give reported Emax for COC1CN(S(=O)(=O)Nc2ccc(F)c(Oc3ccc4ncn([C@H]5COC6(CCN(C7CC8(C7)CN(c7cc9c(cc7F)c(N7CCC(=O)NC7=O)nn9C)C8)CC6)C5)c(=O)c4c3)c2C#N)C1 [Compound 246] (BRAF V600E (Homo sapiens, UniProt P15056+Q96SW2, V600E))
A. 50 to 90%

This collection of values is drawn from patent US20260297060A1.
